# measurement.target: Soluble guanylate cyclase (Homo sapiens) (UniProt Q02153+O75343+P33402+Q02108)
# procedure.summary: Ratio of activation of sGC by compound over that of control, in presence of carbon monooxide (basal activity 33+/-3 nmol/min/mg in absence of CO)
# Assay type: functional
readout.name: Activity
Write the number on its own, no unit after it.

* [N-]=[N+]=Nc1ccc2c(c1)c(-c1ccc(CO)o1)nn2Cc1ccccc1 | 4.4
* [N-]=[N+]=Nc1ccc2c(-c3ccc(CO)o3)nn(Cc3ccccc3)c2c1 | 29
* OCc1ccc(-c2nn(Cc3ccccc3)c3ccccc23)o1 | 139
* [N-]=[N+]=Nc1ccc(Cn2nc(-c3ccc(CO)o3)c3ccccc32)cc1 | 20.3

Consider the additional molecule presented here.
# returns recorded Activity (system: Soluble guanylate cyclase (Homo sapiens) (UniProt Q02153+O75343+P33402+Q02108)) for "[N-]=[N+]=Nc1cccc(Cn2nc(-c3ccc(CO)o3)c3ccccc32)c1"
7.1

* * *

# measurement.target: Soluble guanylate cyclase (Homo sapiens, UniProt O75343+P33402+Q02108+Q02153)
# Sequence (Q02153 whole entry): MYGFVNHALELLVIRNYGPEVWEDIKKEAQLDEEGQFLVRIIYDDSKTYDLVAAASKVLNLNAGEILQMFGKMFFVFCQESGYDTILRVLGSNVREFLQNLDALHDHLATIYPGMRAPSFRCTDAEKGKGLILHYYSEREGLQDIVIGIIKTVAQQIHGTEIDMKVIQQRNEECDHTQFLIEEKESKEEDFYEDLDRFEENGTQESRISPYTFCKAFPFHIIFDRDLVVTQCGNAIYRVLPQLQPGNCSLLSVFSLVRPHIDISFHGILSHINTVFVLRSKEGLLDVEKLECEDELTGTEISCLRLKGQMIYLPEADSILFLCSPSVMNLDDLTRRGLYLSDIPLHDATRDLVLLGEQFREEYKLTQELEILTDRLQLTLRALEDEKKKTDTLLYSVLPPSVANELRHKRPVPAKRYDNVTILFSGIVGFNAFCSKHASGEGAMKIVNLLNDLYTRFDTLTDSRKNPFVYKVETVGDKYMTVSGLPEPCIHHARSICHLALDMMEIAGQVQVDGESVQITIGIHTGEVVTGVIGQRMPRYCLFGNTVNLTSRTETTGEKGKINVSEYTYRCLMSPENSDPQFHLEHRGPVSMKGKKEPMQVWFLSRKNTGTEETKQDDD
# Sequence (O75343 whole entry): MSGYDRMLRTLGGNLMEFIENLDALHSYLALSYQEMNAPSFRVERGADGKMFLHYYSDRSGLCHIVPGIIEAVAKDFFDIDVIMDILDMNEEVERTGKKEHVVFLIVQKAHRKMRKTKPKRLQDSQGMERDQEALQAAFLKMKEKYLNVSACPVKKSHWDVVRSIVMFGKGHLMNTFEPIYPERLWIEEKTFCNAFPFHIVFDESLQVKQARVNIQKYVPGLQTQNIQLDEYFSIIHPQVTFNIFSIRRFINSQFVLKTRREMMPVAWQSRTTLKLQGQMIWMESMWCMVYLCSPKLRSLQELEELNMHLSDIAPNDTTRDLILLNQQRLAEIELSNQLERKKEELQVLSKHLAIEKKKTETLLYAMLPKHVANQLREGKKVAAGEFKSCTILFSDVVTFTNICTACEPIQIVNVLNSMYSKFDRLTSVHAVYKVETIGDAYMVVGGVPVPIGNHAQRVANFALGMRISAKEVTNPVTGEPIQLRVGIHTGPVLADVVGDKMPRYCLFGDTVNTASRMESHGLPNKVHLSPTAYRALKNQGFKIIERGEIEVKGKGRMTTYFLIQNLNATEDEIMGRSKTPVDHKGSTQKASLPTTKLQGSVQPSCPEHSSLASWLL
# Sequence (P33402 whole entry): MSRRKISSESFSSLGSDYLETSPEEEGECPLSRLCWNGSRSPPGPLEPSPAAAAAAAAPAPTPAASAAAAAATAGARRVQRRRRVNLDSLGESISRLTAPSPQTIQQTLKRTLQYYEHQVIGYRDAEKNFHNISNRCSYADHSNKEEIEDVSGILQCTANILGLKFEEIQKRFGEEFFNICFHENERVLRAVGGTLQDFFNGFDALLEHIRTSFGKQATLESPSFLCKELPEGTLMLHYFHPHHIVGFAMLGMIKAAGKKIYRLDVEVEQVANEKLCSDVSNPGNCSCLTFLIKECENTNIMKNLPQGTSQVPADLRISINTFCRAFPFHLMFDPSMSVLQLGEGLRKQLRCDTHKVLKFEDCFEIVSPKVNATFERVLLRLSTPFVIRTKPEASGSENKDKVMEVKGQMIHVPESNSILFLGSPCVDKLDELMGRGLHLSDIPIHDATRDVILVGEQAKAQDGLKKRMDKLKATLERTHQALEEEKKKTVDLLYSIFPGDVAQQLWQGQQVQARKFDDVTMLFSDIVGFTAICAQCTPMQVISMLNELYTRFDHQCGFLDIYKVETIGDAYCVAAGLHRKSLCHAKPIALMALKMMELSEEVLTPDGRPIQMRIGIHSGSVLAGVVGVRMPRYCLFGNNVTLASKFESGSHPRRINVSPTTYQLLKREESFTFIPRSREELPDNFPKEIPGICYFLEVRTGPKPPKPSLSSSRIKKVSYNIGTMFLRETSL
# Sequence (Q02108 whole entry): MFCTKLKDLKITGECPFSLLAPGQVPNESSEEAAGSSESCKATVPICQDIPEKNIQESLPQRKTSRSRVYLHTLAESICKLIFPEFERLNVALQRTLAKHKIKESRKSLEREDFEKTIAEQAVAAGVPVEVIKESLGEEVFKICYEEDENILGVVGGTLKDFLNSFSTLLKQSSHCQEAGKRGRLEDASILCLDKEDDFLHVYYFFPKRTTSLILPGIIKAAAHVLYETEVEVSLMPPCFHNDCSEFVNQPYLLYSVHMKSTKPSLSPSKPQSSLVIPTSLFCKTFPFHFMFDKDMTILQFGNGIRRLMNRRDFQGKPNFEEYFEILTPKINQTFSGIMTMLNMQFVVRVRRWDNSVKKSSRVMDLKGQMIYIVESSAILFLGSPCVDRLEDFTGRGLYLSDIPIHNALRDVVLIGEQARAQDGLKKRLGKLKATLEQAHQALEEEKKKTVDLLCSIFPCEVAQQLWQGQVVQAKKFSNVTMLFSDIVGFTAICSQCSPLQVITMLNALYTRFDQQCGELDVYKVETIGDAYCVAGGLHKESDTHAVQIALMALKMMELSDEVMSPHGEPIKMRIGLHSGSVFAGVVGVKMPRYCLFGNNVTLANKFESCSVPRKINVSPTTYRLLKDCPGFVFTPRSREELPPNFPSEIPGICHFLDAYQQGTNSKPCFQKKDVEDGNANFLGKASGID
# procedure.summary: Effect on YC-1 mediated activation of sGC in presence of carbon monoxide
# Assay type: functional
readout.name: pEC50
pEC50 (log units): -log10 of the concentration in mol/L.

# returns recorded pEC50 (system: Soluble guanylate cyclase (Homo sapiens, UniProt O75343+P33402+Q02108+Q02153)) for "[N-]=[N+]=Nc1ccc2c(-c3ccc(CO)o3)nn(Cc3ccccc3)c2c1"
4.66

* * *

# measurement.target: Soluble guanylate cyclase (Homo sapiens) (UniProt Q02153+O75343+P33402+Q02108)
# procedure.summary: Ratio of activation of sGC by compound over that of control, in absence of carbon monooxide (basal activity 33+/-3 nmol/min/mg)
# Type: functional
readout.name: Activity
Write the number on its own, no unit after it.

// solved cases for Activity follow
• [N-]=[N+]=Nc1ccc(Cn2nc(-c3ccc(CO)o3)c3ccccc32)cc1 = 4.7
• OCc1ccc(-c2nn(Cc3ccccc3)c3ccccc23)o1 = 9.2
• [N-]=[N+]=Nc1cccc(Cn2nc(-c3ccc(CO)o3)c3ccccc32)c1 = 2

Would you mind telling me what Activity value was observed for "[N-]=[N+]=Nc1ccc2c(c1)c(-c1ccc(CO)o1)nn2Cc1ccccc1" ?
1.7

Would you mind telling me what Activity value was observed for "[N-]=[N+]=Nc1ccc2c(-c3ccc(CO)o3)nn(Cc3ccccc3)c2c1" ?
3.4
